System: SZ-4 CTCL cells
Assay: Tumor Cell Proliferation Assay
Type: cell-based
Settings: SZ-4, CTCL (Sézary syndrome); 100 ng/ml IL-2, 72 hr, Cell Titer-Glo
Endpoint: IC50 (nM)
Your answer should be a plain number; it is taken to be in nM.

Provide IC50, recorded with SZ-4 CTCL cells, of C=CC(=O)Nc1cccc(-c2cnc3[nH]cc(C(=O)NC(C)(C)C)c3n2)c1
56

====

Tested on: SNK1
Test: Tumor Cell Proliferation Assay
Assay type: cell-based
Settings: SNK1, NK-TCL; 72 hr
Endpoint: IC50 (nM)
Your answer should be a plain number; it is taken to be in nM.

Retrieve IC50 measured for C=CC(=O)Nc1cccc(-c2cnc3[nH]cc(C(=O)NC(C)(C)C)c3n2)c1 and print it.
735
